assay: self-splicing fitness, log relative to wild type (ln ratio); higher = more splicing; Tetrahymena group I intron in knt gene, E. coli kanamycin selection, DiMSum; sequences stand for … in CUCUCU…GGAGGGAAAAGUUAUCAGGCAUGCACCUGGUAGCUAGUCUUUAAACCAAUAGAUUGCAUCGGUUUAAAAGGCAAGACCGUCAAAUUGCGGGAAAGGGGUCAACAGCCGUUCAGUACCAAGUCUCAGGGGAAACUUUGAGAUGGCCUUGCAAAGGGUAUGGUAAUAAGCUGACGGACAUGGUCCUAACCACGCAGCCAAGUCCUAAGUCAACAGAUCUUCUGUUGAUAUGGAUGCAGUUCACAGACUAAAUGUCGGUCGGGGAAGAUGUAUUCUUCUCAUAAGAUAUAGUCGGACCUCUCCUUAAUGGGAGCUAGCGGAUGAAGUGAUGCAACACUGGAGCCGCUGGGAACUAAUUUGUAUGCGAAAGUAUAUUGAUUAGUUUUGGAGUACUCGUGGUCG; conditions: 37 °C;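 note: selection with 25 µg/mL kanamycin versus none on LB agar overnight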
Rule: self-splicing fitness (ln) of -2 or more gives yes; anything lower gives no.

{"columns": ["SEQUENCE_INPUT", "CLASS_ASSIGNMENT"],
 "data": [
  ["GUCAAGCAAUAUUACGCUGU", "no"],
  ["CUUAAGCAAUAUUACGCUCG", "yes"],
  ["CCUAAGCAAUAUUACGUCUU", "no"],
  ["GGAUAGCAAUAUUACGUGCG", "yes"],
  ["CAAAAGCAAUAUUACGGUUU", "yes"],
  ["UAUGAGCAAUAUUACGUGCU", "no"],
  ["UCGUAGCAAUAUUACGAAAG", "no"],
  ["GGUAAGCAAUAUUACGUAGG", "no"],
  ["CCGUAGCAAUAUUACGUCAU", "no"],
  ["CAACAGCAAUAUUACGAUUG", "yes"],
  ["GAGCAGCAAUAUUACGAGGA", "no"],
  ["UGUAAGCAAUAUUACGUGAA", "yes"],
  ["GAACAGCAAUAUUACGCGGA", "yes"],
  ["GUUCAGCAAUAUUACGCCUC", "yes"],
  ["AGCGAGCAAUAUUACGUACA", "yes"],
  ["CUCAAGCAAUAUUACGUUCG", "no"],
  ["AUAAAGCAAUAUUACGGGUU", "yes"],
  ["AGACAGCAAUAUUACGACCG", "yes"],
  ["AUAUAGCAAUAUUACGAUAC", "yes"],
  ["GGGAAGCAAUAUUACGGCCA", "yes"],
  ["AAGUAGCAAUAUUACGGGCA", "yes"],
  ["UACAAGCAAUAUUACGUGAA", "yes"],
  ["GACGAGCAAUAUUACGGACU", "yes"],
  ["UCGUAGCAAUAUUACGGUGU", "no"],
  ["CGAAAGCAAUAUUACGGACG", "no"],
  ["CGUAAGCAAUAUUACGUAGC", "yes"],
  ["CAUUAGCAAUAUUACGGUGA", "yes"],
  ["AAUAAGCAAUAUUACGUAGC", "no"],
  ["CAAAAGCAAUAUUACGUGCG", "yes"],
  ["UUUAAGCAAUAUUACGCUCA", "yes"],
  ["UAUAAGCAAUAUUACGACAG", "yes"]
]}

###

test: self-splicing fitness, log relative to wild type (ln ratio); higher = more splicing; Tetrahymena group I intron in knt gene, E. coli kanamycin selection, DiMSum; sequences stand for … in CUCUCU…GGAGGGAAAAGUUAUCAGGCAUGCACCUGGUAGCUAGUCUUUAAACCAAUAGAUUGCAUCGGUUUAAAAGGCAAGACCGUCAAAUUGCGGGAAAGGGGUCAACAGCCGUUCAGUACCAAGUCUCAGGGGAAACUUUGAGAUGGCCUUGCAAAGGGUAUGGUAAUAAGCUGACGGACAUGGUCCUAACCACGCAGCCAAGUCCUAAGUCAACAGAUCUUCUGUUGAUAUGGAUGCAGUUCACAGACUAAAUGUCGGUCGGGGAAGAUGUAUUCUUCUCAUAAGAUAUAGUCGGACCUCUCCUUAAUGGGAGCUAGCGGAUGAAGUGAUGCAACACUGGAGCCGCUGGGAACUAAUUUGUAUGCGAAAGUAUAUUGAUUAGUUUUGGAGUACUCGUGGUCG; conditions: 30 °C
MEASURED_ATTRIBUTE: self-splicing fitness (ln)

{"columns": ["SEQUENCE_INPUT", "READING"],
 "data": [
  ["UAACAGCAAUAUUACGUUCA", -0.481],
  ["UUGCAGCAAUAUUACGUUUA", -1.31],
  ["AGAUAGCAAUAUUACGAAUU", -2.43],
  ["CUUGAGCAAUAUUACGAGAU", -3.68],
  ["CAUUAGCAAUAUUACGACAU", -3.36],
  ["GUUGAGCAAUAUUACGGGCC", -3.53],
  ["AGCGAGCAAUAUUACGGAUC", -3.42],
  ["AAGGAGCAAUAUUACGGCAC", -1.23],
  ["GCACAGCAAUAUUACGUAAU", 0.164],
  ["GGGCAGCAAUAUUACGCACA", -0.436],
  ["GCAGAGCAAUAUUACGGAUA", -1.48],
  ["GACUAGCAAUAUUACGCUGG", -3.18],
  ["ACUUAGCAAUAUUACGGAGA", -3.19],
  ["AUGGAGCAAUAUUACGAUUA", -1.13],
  ["CCACAGCAAUAUUACGGCGG", -3.15],
  ["AUGCAGCAAUAUUACGGCUC", -0.408]
]}

###

assay: self-splicing fitness, log relative to wild type (ln ratio); higher = more splicing; Tetrahymena group I intron in knt gene, E. coli kanamycin selection, DiMSum; sequences stand for … in CUCUCU…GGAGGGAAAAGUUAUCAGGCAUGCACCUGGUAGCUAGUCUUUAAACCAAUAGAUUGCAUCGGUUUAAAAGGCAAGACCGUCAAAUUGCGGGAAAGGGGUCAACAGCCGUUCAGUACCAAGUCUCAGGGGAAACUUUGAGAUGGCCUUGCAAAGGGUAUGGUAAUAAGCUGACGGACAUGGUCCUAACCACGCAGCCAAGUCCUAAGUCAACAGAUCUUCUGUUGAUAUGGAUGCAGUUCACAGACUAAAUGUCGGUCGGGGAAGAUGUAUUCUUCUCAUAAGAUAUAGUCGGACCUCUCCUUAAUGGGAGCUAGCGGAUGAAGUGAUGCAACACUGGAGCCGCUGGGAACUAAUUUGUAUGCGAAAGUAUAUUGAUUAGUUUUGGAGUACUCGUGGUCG; details: 30 °C
Rule: self-splicing fitness (ln) of -2 or more gives T; anything lower gives F.

{"columns": ["SEQUENCE_INPUT", "CLASS_ASSIGNMENT"],
 "data": [
  ["GUAGAGCAAUAUUACGGUCC", "T"],
  ["CGAUAGCAAUAUUACGAAGU", "F"],
  ["CCCGAGCAAUAUUACGUUUG", "F"],
  ["GGCAAGCAAUAUUACGUCCG", "F"],
  ["AGCGAGCAAUAUUACGGACU", "T"],
  ["UCGUAGCAAUAUUACGACAC", "F"],
  ["GGCUAGCAAUAUUACGCUGA", "T"],
  ["UCCUAGCAAUAUUACGAUAC", "F"],
  ["UGUUAGCAAUAUUACGAUCG", "T"],
  ["UCUUAGCAAUAUUACGAGCA", "T"],
  ["AAGUAGCAAUAUUACGGUAG", "F"],
  ["GGACAGCAAUAUUACGUUCG", "T"],
  ["UUAUAGCAAUAUUACGUUUU", "F"],
  ["GUCGAGCAAUAUUACGCGGG", "F"],
  ["CCUAAGCAAUAUUACGUCUU", "F"],
  ["AGGGAGCAAUAUUACGAGAU", "F"],
  ["UGCGAGCAAUAUUACGAGAU", "F"],
  ["UGAUAGCAAUAUUACGGGAC", "F"],
  ["CGACAGCAAUAUUACGGACA", "T"],
  ["ACGGAGCAAUAUUACGAGAC", "T"],
  ["ACUUAGCAAUAUUACGAGUU", "F"],
  ["UAGAAGCAAUAUUACGGCGU", "T"],
  ["AUGUAGCAAUAUUACGCUAG", "T"],
  ["UACAAGCAAUAUUACGGAAG", "F"],
  ["UAGUAGCAAUAUUACGACGU", "T"],
  ["UGAAAGCAAUAUUACGAGGG", "F"],
  ["GAGUAGCAAUAUUACGUCGU", "F"],
  ["CUAAAGCAAUAUUACGAAAU", "F"],
  ["AGGCAGCAAUAUUACGCUAA", "T"],
  ["UCCGAGCAAUAUUACGCCUU", "F"],
  ["GAUGAGCAAUAUUACGGCCA", "F"],
  ["AUUCAGCAAUAUUACGAAGA", "T"],
  ["UGAGAGCAAUAUUACGGGCU", "F"],
  ["UAGUAGCAAUAUUACGUUGU", "F"]
]}

# credit: the supplement of paper PMC7877785
